The origin of these recorded values is patent US9670204B2.

study_target: hENPP2 (UniProtKB/SwissProt Q13822) (Homo sapiens (Human), UniProt Q13822)
test_protocol: fluorescent hENPP2 biochemical assay, FS-3 as substrate
condition_label: read-out: FS3-IC50
Measured IC50, listed per entry.

Q: Any idea what its IC50 is? The molecule is "CCc1nc2ccc(C3CCN(C4CN(C(C)=O)C4)CC3)cn2c1N(C)c1nc(-c2ccc(F)cc2)cs1"
Result: 0.01 to 100 nM

Q: Any idea what its IC50 is? The molecule is "CCc1nc2ccc(N3CCN(CC(=O)N4CC(O)C4)CC3)cn2c1N(C)c1nc(-c2ccc(F)cc2C#N)c(C)s1"
Result: 0.01 to 100 nM

Q: Any idea what its IC50 is? The molecule is CCc1nc2ccc(C3=NCC(C)O3)cn2c1N(C)c1nc(-c2ccc(F)cc2)cs1 (stereo not shown)
Result: 100 to 500 nM
